- SYSTEM_TESTED: PARP2 (Homo sapiens, UniProt Q9UGN5)
- Sequence (Q9UGN5 whole entry, species assumed): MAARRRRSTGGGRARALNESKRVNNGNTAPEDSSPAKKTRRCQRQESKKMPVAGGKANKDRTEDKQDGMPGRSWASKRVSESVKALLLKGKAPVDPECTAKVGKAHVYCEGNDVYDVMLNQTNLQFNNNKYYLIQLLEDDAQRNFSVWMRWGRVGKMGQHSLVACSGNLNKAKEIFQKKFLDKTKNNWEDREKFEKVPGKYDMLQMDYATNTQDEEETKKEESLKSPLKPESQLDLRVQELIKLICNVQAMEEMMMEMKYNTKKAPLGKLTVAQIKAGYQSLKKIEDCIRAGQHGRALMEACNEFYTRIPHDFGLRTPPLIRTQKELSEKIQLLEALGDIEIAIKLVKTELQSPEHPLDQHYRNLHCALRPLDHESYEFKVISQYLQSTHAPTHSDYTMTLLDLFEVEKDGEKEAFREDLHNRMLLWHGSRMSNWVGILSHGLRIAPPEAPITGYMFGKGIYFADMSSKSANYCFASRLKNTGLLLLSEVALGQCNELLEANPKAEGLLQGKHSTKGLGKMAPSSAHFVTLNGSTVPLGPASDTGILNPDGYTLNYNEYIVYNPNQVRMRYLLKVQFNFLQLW
- PROCEDURE_DETAILS: PARP2 chemiluminescent assay
- Format: biochemical
- ASSAY_CONDITIONS: recombinant PARP2 enzyme activity, chemiluminescence
OUTCOME_MEASURE: IC50

>>> df
                           structure_string  value_reported
0  CCn1c(=O)[nH]c2cc(CN3CCN(c4ccc(C(=O)NC)nc4)CC3)ccc2c1=O  100 to 1000 nM
1  CCn1c(=O)[nH]c2cc(CN3CCN(c4ccc(C(=O)NC)nc4Cl)CC3)cc(Cl)c2c1=O  100 to 1000 nM
2  CCn1c(=O)[nH]c2cc(CN3CCN(c4ccc(C(=O)NC)nc4F)CC3)cc(F)c2c1=O  100 to 1000 nM
3  CCN1Cc2ccc(CN3CCN(c4ccc(C(=O)NC)nc4)CC3)cc2NC1=O       > 1000 nM

Next:
input: # return recorded IC50 for entry `CCNC(=O)c1ccc(N2CCN(Cc3ccc4c(c3)NC(=O)N(CC)C4)CC2)c(C)n1`
output: > 1000 nM
